Tested on: NCC-MFS5-C1
PROTOCOL TEXT: cell viability relative to DMSO control; higher = less growth inhibition
PARTICULARS: 10 µM; treatment time: 3 days
Counter-ions that a name gives are not always drawn.
MEASURED ENDPOINT: cell viability (%)
Numbers only, in %.

| MOLECULE | TARGET OF ASSAY | cell viability, % |
| --- | --- | --- |
| Nc1nc(CC(=O)Nc2ccc(CCNC[C@H](O)c3ccccc3)cc2)cs1 [Mirabegron] | NCC-MFS5-C1 | 82.5 |
| CN(C)/N=N/c1[nH]cnc1C(N)=O [Dacarbazine] | NCC-MFS5-C1 | 82 |
| CCC(C)n1ncn(-c2ccc(N3CCN(c4ccc(OCC5COC(Cn6cncn6)(c6ccc(Cl)cc6Cl)O5)cc4)CC3)cc2)c1=O (centres undefined) [Itraconazole] | NCC-MFS5-C1 | 77.7 |

Here is another molecule to look at.
Ask | What measured cell viability goes with Nc1ccn([C@@H]2O[C@H](CO)[C@@H](O)[C@@H]2O)c(=O)n1 [Cytosine β-D-arabinofuranoside hydrochloride] ?
Reply | 118
